# EXPERIMENTAL_PROTOCOL: total protein half-life in vivo (active degradation + dilution); higher = more stable protein
# CONDITION_CONTEXT: wild type E. coli NCM3722; growth: P-lim chemostat; doubling time 6 h

{"SEQUENCE_STRING": "MFKPHVTVACVVHAEGKFLVVEETINGKALWNQPAGHLEADETLVEAAARELWEETGISAQPQHFIRMHQWIAPDKTPFLRFLFAIELEQICPTQPHDSDIDCCRWVSAEEILQASNLRSPLVAESIRCYQSGQRYPLEMIGDFNWPFTKGVI [P0AEI6]", "total protein half-life in vivo": "5.49 h"}
{"SEQUENCE_STRING": "MMNPLIIKLGGVLLDSEEALERLFSALVNYRESHQRPLVIVHGGGCVVDELMKGLNLPVKKKNGLRVTPADQIDIITGALAGTANKTLLAWAKKHQIAAVGLFLGDGDSVKVTQLDEELGHVGLAQPGSPKLINSLLENGYLPVVSSIGVTDEGQLMNVNADQAATALAATLGADLILLSDVSGILDGKGQRIAEMTAAKAEQLIEQGIITDGMIVKVNAALDAARTLGRPVDIASWRHAEQLPALFNGMPMGTRILA [P0A6C8]", "total protein half-life in vivo": "4.58 h"}
{"SEQUENCE_STRING": "MTMSLEVFEKLEAKVQQAIDTITLLQMEIEELKEKNNSLSQEVQNAQHQREELERENNHLKEQQNGWQERLQALLGRMEEV [P0AF36]", "total protein half-life in vivo": "4.53 h"}
{"SEQUENCE_STRING": "MFDIGFSELLLVFIIGLVVLGPQRLPVAVKTVAGWIRALRSLATTVQNELTQELKLQEFQDSLKKVEKASLTNLTPELKASMDELRQAAESMKRSYVANDPEKASDEAHTIHNPVVKDNEAAHEGVTPAAAQTQASSPEQKPETTPEPVVKPAADAEPKTAAPSPSSSDKP", "total protein half-life in vivo": "4.27 h"}
